- System: KM12
- assay summary: NCI tumour cell line growth inhibition, 48 h
Active and inactive are the calls of the source. Rule as the data show it: active = GI50 up to about 1.1 µM and inactive = higher.
readout name: GI50

Would you please look over these solved cases?
{"compound": "CC(C)C/C(CC(=O)CCC(=O)Nc1ccccc1[N+](=O)[O-])=N\\NC(=O)c1cc2ccccc2cc1O", "GI50": "67.6 µM (inactive)"}
{"compound": "COC(=O)C(/C(=N/NC(=O)c1ccncc1)C(=O)Nc1ccccc1OC)c1nc2ccc(Cl)cc2nc1O (centres undefined)", "GI50": "92 µM (inactive)"}
{"compound": "Cc1ccc(NC(=O)OCC(COc2ccc(Cl)cc2)OC(=O)Nc2ccc(C)cc2)cc1 (centres undefined)", "GI50": "23 µM (inactive)"}
{"compound": "COc1ccc(-c2cc(=O)c3c(O)c(O)c(OC)cc3o2)cc1O", "GI50": "> 100 µM (inactive)"}
{"compound": "Cc1cc2c(c3nocc13)C(=O)c1ccccc1C2=O", "GI50": "> 100 µM (inactive)"}

// query GI50 value for entry `C=C(C)[C@@]1(O[Si](C)(C)C)CCCC[C@@H]1CC(Sc1ccccc1)Sc1ccccc1`
10.6 µM (inactive)

Please look up its GI50: `O=C1c2ccccc2-c2cccc3ccc(Cc4ccccc4)c1c23`
> 100 µM (inactive)

Please report the recorded GI50 for CC12CC(c3ccccc3O1)C(C(=O)Nc1ccc(F)cc1)C(=O)N2 (centres undefined) .
> 100 µM (inactive)

Entry `COc1ccc(-c2cc(-c3cc(F)c(Cl)cc3Cl)[nH]n2)cc1OC` : reported GI50 = ?
26.4 µM (inactive)

###

- Tested on: CAKI-1
- assay summary: NCI tumour cell line growth inhibition, 48 h
Active and inactive are the calls of the source. Rule as the data show it: active = GI50 up to about 1.1 µM and inactive = higher.
Bench note: report the call from active, inactive

Solved cases below.
{"compound": "CCOC(=O)C1(O)C(=O)C2=C3C(=O)OC(C4OC(=O)c5c(c(O)c(O)c(O)c5C31)-c1c(cc(O)c(O)c1O)C(=O)OC1COC(=O)c3cc(O)c(O)c(O)c3-c3c(cc(O)c(O)c3O)C(=O)OC14)[C@@H]2O (stereo not given in full)", "class assignment": "inactive"}
{"compound": "O=C1C2Cc3ccccc3CN2C(=O)N1CCN1CCOCC1 (stereo not given)", "class assignment": "inactive"}
{"compound": "N#CCN1c2ccccc2CCC1Cl (stereo not given)", "class assignment": "inactive"}

Call for entry `Cc1ccc(S(=O)(=O)SC(C)(C)C)cc1` :
inactive

What did this assay record as the result for CCN(CC)C(=O)CC12CCCCC1=Nc1ccccc12 (stereo not given) ?
inactive

Please state the recorded outcome for this compound: `CCCCCCCCCc1nn2c(Cc3ccccc3)nnc2s1`
inactive

Short answer needed: outcome of this test for CC(C)(C)c1cc2c(OC/C=C/c3ccccc3)c(c1)Cc1cc(C(C#N)(OC/C=C/c3ccccc3)OC/C=C/c3ccccc3)cc(c1OC/C=C\c1ccccc1)Cc1cc(C(C)(C)C)cc(c1OC/C=C/c1ccccc1)Cc1cc(C(C#N)(OC/C=C\c3ccccc3)OC/C=C/c3ccccc3)cc(c1OC/C=C\c1ccccc1)C2 (stereo not given) ?
inactive

Hi, do you know how `CC(=O)N1c2ccccc2[C@H]2CCc3c([nH]c4ccccc34)[C@H]21` came out in this test?
inactive

I would be grateful if you could indicate the recorded call for O=C(O)C1CCN(Cc2oc(CO)cc(=O)c2O)C1 (stereo not given) .
inactive
